Attribution: patent US7807828B2

Measured Ki, listed per entry.
# TARGET ENTITY: D2 (h) (Homo sapiens, UniProt P14416)
# Sequence (P14416 whole entry): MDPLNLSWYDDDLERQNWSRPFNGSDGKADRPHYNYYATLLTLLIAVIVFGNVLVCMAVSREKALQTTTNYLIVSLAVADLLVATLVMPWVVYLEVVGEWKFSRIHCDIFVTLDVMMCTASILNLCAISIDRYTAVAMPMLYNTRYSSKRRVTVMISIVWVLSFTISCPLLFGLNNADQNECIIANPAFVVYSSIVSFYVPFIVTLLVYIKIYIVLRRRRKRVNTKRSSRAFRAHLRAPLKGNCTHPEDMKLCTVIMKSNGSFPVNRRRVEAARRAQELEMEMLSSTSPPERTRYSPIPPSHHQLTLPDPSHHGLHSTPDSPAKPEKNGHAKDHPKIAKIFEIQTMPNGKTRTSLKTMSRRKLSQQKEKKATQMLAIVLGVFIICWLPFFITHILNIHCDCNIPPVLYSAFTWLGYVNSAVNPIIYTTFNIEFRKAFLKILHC
# TEST METHOD NOTES: Dopamine D2 binding assay
# MEASUREMENT CONTEXT: Table 7A; unit inferred
State the answer as a number, implicitly in nM.

The reported Ki of the compound "Cc1cc2c(s1)Nc1ccccc1N=C2N1CCN(CC(C)(C)C(=O)NS(C)(=O)=O)CC1" was 927

Ki in this record for "Cc1cc2c(s1)Nc1ccccc1N=C2N1CCN(CC2(C(=O)O)CC2)CC1" : 202

The reported value for "CC(C)c1cc2c(s1)Nc1ccccc1N=C2N1CCN(CC(C)(C)C(=O)O)CC1" in terms of Ki is 107

---

# TARGET ENTITY: H1 (rat) (Rattus norvegicus, UniProt P31390)
# Sequence (P31390 whole entry): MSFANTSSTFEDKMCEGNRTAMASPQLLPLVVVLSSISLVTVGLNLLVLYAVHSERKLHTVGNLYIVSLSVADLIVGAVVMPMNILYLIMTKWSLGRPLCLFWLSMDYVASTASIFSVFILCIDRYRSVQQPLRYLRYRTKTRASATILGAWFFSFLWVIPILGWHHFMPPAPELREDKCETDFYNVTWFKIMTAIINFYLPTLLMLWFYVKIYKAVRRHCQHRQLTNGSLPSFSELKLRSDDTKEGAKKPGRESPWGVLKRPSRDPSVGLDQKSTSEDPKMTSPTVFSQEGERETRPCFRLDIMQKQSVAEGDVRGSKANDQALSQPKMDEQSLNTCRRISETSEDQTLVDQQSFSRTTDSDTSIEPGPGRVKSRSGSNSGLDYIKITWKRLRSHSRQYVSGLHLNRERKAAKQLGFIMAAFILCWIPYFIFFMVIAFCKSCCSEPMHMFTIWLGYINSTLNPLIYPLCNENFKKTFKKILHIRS
# TEST METHOD NOTES: H1 (rat) competitive binding assay
# MEASUREMENT CONTEXT: Table 7A; Ki in nM
Items are presented alongside their recorded Ki.
Write the answer as a number in nM, unit excluded.

Worked cases, Ki given:
>  <COMPOUND SMILES>
CC(C)c1cc2c(s1)Nc1ccccc1N=C2N1CCN(CC(C)(C)C(=O)O)CC1

>  <ENDPOINT NAME>
Ki

>  <RECORDED NUMBER>
110

$$$$
>  <COMPOUND SMILES>
Cc1cc2c(s1)Nc1ccccc1N=C2N1CCN(CC2(C(=O)O)CC2)CC1

>  <ENDPOINT NAME>
Ki

>  <RECORDED NUMBER>
53

$$$$
>  <COMPOUND SMILES>
CCc1cc2c(s1)Nc1ccccc1N=C2N1CCN(CC(C)(C)C(=O)O)CC1

>  <ENDPOINT NAME>
Ki

>  <RECORDED NUMBER>
55.5

$$$$
>  <COMPOUND SMILES>
Cc1cc2c(s1)Nc1ccccc1N=C2N1CCN(CC(C)(C)C(=O)O)CC1

>  <ENDPOINT NAME>
Ki

>  <RECORDED NUMBER>
34

$$$$

# ---- query compound ----
The measured Ki that "Cc1cc2c(s1)Nc1ccccc1N=C2N1CCN(CCC(=O)O)CC1" showed for H1 (rat) (Rattus norvegicus, UniProt P31390) is 95.6

---

# TARGET ENTITY: D1 (h) (Homo sapiens)
# Sequence (P21728 whole entry): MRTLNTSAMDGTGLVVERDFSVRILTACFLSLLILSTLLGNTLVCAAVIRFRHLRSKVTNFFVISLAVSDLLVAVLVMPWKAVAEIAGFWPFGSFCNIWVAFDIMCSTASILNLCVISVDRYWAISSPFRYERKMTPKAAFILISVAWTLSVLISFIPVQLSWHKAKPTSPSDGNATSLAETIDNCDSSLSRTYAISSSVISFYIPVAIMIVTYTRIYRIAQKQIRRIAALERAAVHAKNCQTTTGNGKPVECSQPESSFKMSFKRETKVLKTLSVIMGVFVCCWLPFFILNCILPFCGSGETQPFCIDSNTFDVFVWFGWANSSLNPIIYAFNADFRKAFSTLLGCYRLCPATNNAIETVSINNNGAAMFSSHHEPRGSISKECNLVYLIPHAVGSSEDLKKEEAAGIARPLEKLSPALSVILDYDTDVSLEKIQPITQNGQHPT
# TEST METHOD NOTES: Dopamine D1 (human recombinant) binding assay
# MEASUREMENT CONTEXT: Table 7A; unit inferred
ENDPOINT NAME: Ki (nM)
Respond with the bare value in nM.

>  <COMPOUND SMILES>
CC(C)c1cc2c(s1)Nc1ccccc1N=C2N1CCN(CC(C)(C)C(=O)O)CC1

>  <TARGET ENTITY>
D1 (h) (Homo sapiens)

>  <Ki [nM]>
300

$$$$
>  <COMPOUND SMILES>
Cc1cc2c(s1)Nc1ccccc1N=C2N1CCN(CC2(C(=O)O)CC2)CC1

>  <TARGET ENTITY>
D1 (h) (Homo sapiens)

>  <Ki [nM]>
278

$$$$
>  <COMPOUND SMILES>
CCc1cc2c(s1)Nc1ccccc1N=C2N1CCN(CC(C)(C)C(=O)O)CC1

>  <TARGET ENTITY>
D1 (h) (Homo sapiens)

>  <Ki [nM]>
565

$$$$

So, "Cc1cc2c(s1)Nc1ccccc1N=C2N1CCN(CC(C)(C)C(=O)O)CC1" ? Its Ki was 1550

Recorded Ki (compound "Cc1cc2c(s1)Nc1ccccc1N=C2N1CCN(CCC(=O)O)CC1" ): 129

compound "Cc1cc2c(s1)Nc1ccccc1N=C2N1CCN(CC(C)(C)C(=O)NS(C)(=O)=O)CC1" , Ki observed: 6500
